target: human CGRP receptor (SK-N-MC cells) (Homo sapiens, UniProt O60894+Q16602); construct: SK-N-MC cells that endogenously express the human CGRP receptor; endogenous in cells; host or cells: SK-N-MC cells; test: Cyclic AMP Assay, functional antagonism of CGRP-induced cyclic AMP formation; type: cell-based; conditions: SK-N-MC cells, 0.3 nM CGRP; read-out: cAMP Function IC50
Sequence (Q16602 23-461): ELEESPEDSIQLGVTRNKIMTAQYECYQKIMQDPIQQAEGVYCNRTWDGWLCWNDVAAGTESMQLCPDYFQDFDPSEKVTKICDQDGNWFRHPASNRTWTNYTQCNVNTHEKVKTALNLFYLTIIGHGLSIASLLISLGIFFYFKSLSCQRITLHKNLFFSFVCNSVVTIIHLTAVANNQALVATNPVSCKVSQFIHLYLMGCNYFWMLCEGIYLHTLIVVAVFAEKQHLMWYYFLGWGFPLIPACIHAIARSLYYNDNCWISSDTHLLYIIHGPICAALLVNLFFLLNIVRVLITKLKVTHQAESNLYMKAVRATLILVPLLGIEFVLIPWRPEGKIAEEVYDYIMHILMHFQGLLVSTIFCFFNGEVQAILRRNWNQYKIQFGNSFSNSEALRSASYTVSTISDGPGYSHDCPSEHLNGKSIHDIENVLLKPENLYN
Sequence (O60894 27-148): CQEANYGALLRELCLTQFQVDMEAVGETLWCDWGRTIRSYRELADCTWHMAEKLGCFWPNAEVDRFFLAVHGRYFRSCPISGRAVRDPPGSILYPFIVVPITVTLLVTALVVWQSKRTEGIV
Give IC50 for every item shown.

Return reported IC50 for target or system human CGRP receptor (SK-N-MC cells) (Homo sapiens, UniProt O60894+Q16602), item `O=C(N[C@H](Cc1ccc2[nH]c(=O)oc2c1)C(=O)N1CCC(N2CCCCC2)CC1)N1CCC(N2Cc3ccccc3NC2=O)CC1` .
< 10 nM

Provide the reported IC50 (system: human CGRP receptor (SK-N-MC cells) (Homo sapiens, UniProt O60894+Q16602)) for `O=C(C[C@H](Nc1ccc2[nH]ccc2c1)C(=O)N1CCC(N2CCCCC2)CC1)N1CCC(N2Cc3ccccc3NC2=O)CC1`
10 to 100 nM

Specify IC50 for Cc1cc(CC(CC(=O)N2CCC(N3Cc4ccccc4NC3=O)CC2)C(=O)N2CCCCC2)cc2cn[nH]c12 (racemic) , system human CGRP receptor (SK-N-MC cells) (Homo sapiens, UniProt O60894+Q16602).
< 10 nM

----------
target: CGRP receptor (SK-N-MC cell membranes) (Homo sapiens, UniProt O60894+Q16602); construct: endogenous in cells; host or cells: SK-N-MC cells (membrane homogenate); test: CGRP Binding Assay ([125I]-CGRP radioligand binding, SK-N-MC homogenate); conditions: displacement of [125I]-CGRP, SK-N-MC homogenate; read-out: CGRP binding IC50
MEASURED PARAMETER: IC50

Name the recorded IC50 of the compound listed here: Cc1cc(CC(CC(=O)N2CCC(N3Cc4ccccc4NC3=O)CC2)C(=O)N2CCC(N3CCCCC3)CC2)cc2cn[nH]c12 (racemic)
< 0.01 µM

Report measured IC50; entry is O=C(C[C@H](NC1CCC(O)CC1)C(=O)N1CCC(N2CCCCC2)CC1)N1CCC(N2Cc3ccccc3NC2=O)CC1 (stereo partly shown)
> 1 µM

Please report the measured IC50 for `CC(=O)N[C@@H](CC(=O)N1CCC(N2Cc3ccccc3NC2=O)CC1)C(=O)N1CCC(N2CCCCC2)CC1`
0.1 to 1 µM

For the compound COC(=O)C(Cc1cc(Cl)c2[nH]ncc2c1)NC(=O)N1CCC(N2Cc3ccccc3NC2=O)CC1 (racemic) , give its reported IC50.
0.1 to 1 µM

Give recorded IC50. `Cc1ccc(C)c(NC(=O)N[C@@H](CC(=O)N2CCC(N3Cc4ccccc4NC3=O)CC2)C(=O)N2CCC(N3CCCCC3)CC2)c1`
0.1 to 1 µM

Identify IC50 associated with the compound CCCN1CCN(C(=O)C(Cc2ccc3[nH]ncc3c2)NC(=O)N2CCC(N3Cc4ccccc4NC3=O)CC2)CC1 (stereo not shown) [Example 40d]
0.1 to 1 µM

Annotate the compound COc1ncc(CC(NC(=O)N2CCC(N3Cc4ccccc4NC3=O)CC2)C(=O)N2CCC(N3CCCCC3)CC2)cn1 (racemic) with its measured IC50.
> 1 µM

Return value of IC50 for input COC(=O)C(Cc1cc(C)c2[nH]ncc2c1)NC(=O)N1CCC2(CC1)OC(=O)Nc1ccccc12 (stereo not shown) , no commentary.
> 1 µM

Given the compound COC(=O)C(CC(=O)N1CCC(N2Cc3ccccc3NC2=O)CC1)Cc1cc(C)c2[nH]ncc2c1 (racemic) , write its reported IC50.
0.01 to 0.1 µM

State its IC50: `O=C(N[C@@H](CC(=O)N1CCC(N2Cc3ccccc3NC2=O)CC1)C(=O)N1CCC(N2CCCCC2)CC1)c1ccc(F)c(F)c1`
0.1 to 1 µM

Determine its reported IC50: Cc1cc(CC(NC(=O)N2CCC3(CC2)OC(=O)Nc2ccccc23)C(=O)N2CCN(c3ccncc3)CC2)cc2cn[nH]c12 (racemic)
< 0.01 µM

Indicate its recorded IC50; the compound in question is `O=C(Nc1ccccc1Cl)N[C@@H](CC(=O)N1CCC(N2Cc3ccccc3NC2=O)CC1)C(=O)N1CCC(N2CCCCC2)CC1`
0.01 to 0.1 µM

Entry Cc1cc(CC(CC(=O)N2CCC3(CC2)OC(=O)Nc2ccccc23)C(=O)N2CCC3(CC2)OCCO3)cc2cn[nH]c12 (racemic) needs its IC50 filled in; supply it.
< 0.01 µM
